- Experiment: SK-BR-3 cell growth inhibitors, pilot screen, 24 h, human (AID 572);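 note: compound exposure lasted between 18 and 24 h rather than exactly 24 h; 100% = carrier-treated control wells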
- Assay context: SK-BR-3 viability, CellTiter-Glo luminescence, at 10 µM, stronger effect = lower value
The source made the active and inactive calls.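 Rule for the calls: active = viability at or below 10% of carrier control in both of two separate runs; inconclusive = viability at or below 10% in only one of the two runs; inactive = the rest.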
Field: viability. Provide a value for each of the compounds that follow.

IN: Entry COc1ccc(CC(=O)NCc2cccs2)cc1 : reported viability = ?
OUT: 90% (inactive)

IN: Entry Cc1ccc(/C=c2\s/c(=C(/C#N)C(=O)N3CCCC3)n(Cc3ccco3)c2=O)s1 : reported viability = ?
OUT: 87.5% (inactive)

IN: Entry CCOC(=O)c1sc(NC(=O)CSc2nnc(-c3ccc(OC)cc3)n2CCOC)nc1C : reported viability = ?
OUT: 99% (inactive)

IN: Entry COC(=O)C1=C(C)Nc2ncnn2C1c1ccco1 (stereo not given) : reported viability = ?
OUT: 80% (inactive)

IN: Entry Nc1nonc1-c1noc(-c2ccccc2Br)n1 : reported viability = ?
OUT: 112% (inactive)

IN: Entry CC(=O)OCC(=O)[C@@]1(O)CC[C@H]2[C@@H]3CCC4=CC(=O)CC[C@]4(C)[C@H]3[C@@H](O)C[C@@]21C : reported viability = ?
OUT: 101% (inactive)

IN: Entry O=c1[nH]c2ccc(S(=O)(=O)N3CCN(C4CCCCC4)CC3)cc2[nH]c1=O : reported viability = ?
OUT: 90.5% (inactive)

IN: Entry Cc1cccc(N(C)C(=O)c2coc(=O)c3ccccc23)c1 : reported viability = ?
OUT: 85% (inactive)

IN: Entry CC(=O)Nc1nnc(S(N)(=O)=O)s1 : reported viability = ?
OUT: 95% (inactive)

IN: Entry O=C1[C@@H]2C(c3ccccc3Cl)=NO[C@@H]2C(=O)N1Cc1ccccc1 : reported viability = ?
OUT: 96% (inactive)

IN: Entry O=S(=O)(Nn1cnnc1)c1ccccc1Cl : reported viability = ?
OUT: 84% (inactive)

IN: Entry N=c1nc(N2CCCCC2)cc(N)n1O : reported viability = ?
OUT: 96% (inactive)

IN: Entry Cn1c(=O)cc(SCC(=O)NCC2CCCO2)c2ccc(Cl)cc21 (stereo not given) : reported viability = ?
OUT: 88.5% (inactive)

IN: Entry O=C1C(CCS(=O)c2ccccc2)C(=O)N(c2ccccc2)N1c1ccccc1 (stereo not given) : reported viability = ?
OUT: 112% (inactive)

IN: Entry CCOC(=O)c1ccc(NS(=O)(=O)c2ccc3c(c2)CCCN3C(C)=O)cc1 : reported viability = ?
OUT: 118% (inactive)

IN: Entry COC(=O)C1=CN(C)C=C(C(=O)OC)C1c1ccc(O)c(OC)c1 : reported viability = ?
OUT: 96.5% (inactive)

IN: Entry COc1cc(CC(=O)Oc2ccc3c(c2)OCO3)cc(OC)c1OC : reported viability = ?
OUT: 98% (inactive)

IN: Entry CCOC(=O)C1CCN(C(=O)Nc2ccc3snnc3c2)CC1 : reported viability = ?
OUT: 96.5% (inactive)

IN: Entry O=C(NCc1ccccn1)c1ccc2nc(-c3ccco3)c(-c3ccco3)nc2c1 : reported viability = ?
OUT: 101% (inactive)

IN: Entry CCCNC(=O)NC1C(NC(=O)NCCC)N(C)C(=O)N1C (stereo not given) : reported viability = ?
OUT: 86% (inactive)

IN: Entry CC1=C(C(=O)OCC(C)C)C(c2cc3c(cc2Br)OCO3)NC(=O)N1C (stereo not given) : reported viability = ?
OUT: 99% (inactive)

IN: Entry Cc1sc2nc(SCc3nc4ccccc4[nH]3)n(Cc3ccco3)c(=O)c2c1C : reported viability = ?
OUT: 96.5% (inactive)

IN: Entry CCOC(=O)C1=C(C)NC(=O)C(C#N)C1c1ccco1 (stereo not given) : reported viability = ?
OUT: 104% (inactive)

IN: Entry Cc1ccc(CN2C(=O)CCC2C(=O)NCCCN2CCCC(C)C2)cc1 (stereo not given) : reported viability = ?
OUT: 82% (inactive)

IN: Entry COc1ccc(N2C(=O)C3CCCN3C2c2ccc(F)cc2)cc1Cl (stereo not given) : reported viability = ?
OUT: 102% (inactive)

IN: Entry O=S(=O)(c1ccc(OCC(O)CN2CCc3ccccc3C2)cc1)N1CCOCC1 (stereo not given) : reported viability = ?
OUT: 89% (inactive)

IN: Entry O=C(c1csc2ccccc12)n1cccn1 : reported viability = ?
OUT: 117% (inactive)

IN: Entry Cc1cc(C(=O)Nc2c(C)n(C)n(-c3ccccc3)c2=O)c(C)o1 : reported viability = ?
OUT: 71% (inactive)

IN: Entry Cc1cc(S(=O)(=O)N2CCN(c3ncccn3)CC2)ccc1-n1cnnn1 : reported viability = ?
OUT: 94% (inactive)

IN: Entry COc1ccc(NC(=O)CSc2c(C)nn(-c3nnc(C)c(=O)[nH]3)c2C)cc1 : reported viability = ?
OUT: 101% (inactive)

IN: Entry CC(=Nc1cccc(O)c1)c1sc2ccccc2c1O : reported viability = ?
OUT: 103% (inactive)

IN: Entry CC(C)NCC(O)COc1ccc(CC(N)=O)cc1 (stereo not given) : reported viability = ?
OUT: 88% (inactive)

IN: Entry Cc1cc(=O)[nH]c(SCc2nc3ncccn3c2Br)n1 : reported viability = ?
OUT: 108% (inactive)

IN: Entry CC(=O)N1CCc2cc(S(=O)(=O)NCCC(=O)Nc3cc(C)cc(C)c3)ccc21 : reported viability = ?
OUT: 95% (inactive)

IN: Entry Cc1cccc(C(=O)O)c1NC(=O)c1ccc(F)cc1 : reported viability = ?
OUT: 109% (inactive)

IN: Entry Cc1ccccc1OCc1nc2ccccc2c(=O)n1/N=C/c1ccco1 : reported viability = ?
OUT: 102% (inactive)

IN: Entry Cc1onc(-c2ccccc2)c1C(=O)N1CCN(C(=O)c2ccco2)CC1 : reported viability = ?
OUT: 98% (inactive)

IN: Entry COC(=O)c1ccccc1NC(=O)C12CCC(C)(C(=O)O1)C2(C)C (stereo not given) : reported viability = ?
OUT: 84% (inactive)

IN: Entry COc1ccc(CCN2C(=O)CC(N3CCN(S(=O)(=O)c4ccccc4)CC3)C2=O)cc1 (stereo not given) : reported viability = ?
OUT: 103% (inactive)

IN: Entry COc1ccc(-c2nc(N)nc(C)c2Oc2ccccc2Br)c(O)c1 : reported viability = ?
OUT: 96% (inactive)

IN: Entry O=C(Nc1cc(C(F)(F)F)ccc1N1CCCC1)c1ccc2c(c1)OCO2 : reported viability = ?
OUT: 72% (inactive)

IN: Entry O=C(CCCN1C(=O)c2ccccc2C1=O)N1CCC(c2ccccc2)C1 (stereo not given) : reported viability = ?
OUT: 110% (inactive)

IN: Entry Cn1c(-c2ccc(C(C)(C)C)cc2)n[nH]c1=S : reported viability = ?
OUT: 106% (inactive)

IN: Entry COc1cc(C(=O)N2CCCC(c3nc(-c4cccs4)no3)C2)cc(OC)c1OC (stereo not given) : reported viability = ?
OUT: 90.5% (inactive)

IN: Entry CCN(C(=O)c1c(OC)cccc1OC)c1nnc(-c2cccnc2)s1 : reported viability = ?
OUT: 95% (inactive)
